Each item that follows carries a reported IC50.
- Measurement target: Glyceraldehyde-3-phosphate dehydrogenase (Homo sapiens)
- Sequence (P04406 whole entry): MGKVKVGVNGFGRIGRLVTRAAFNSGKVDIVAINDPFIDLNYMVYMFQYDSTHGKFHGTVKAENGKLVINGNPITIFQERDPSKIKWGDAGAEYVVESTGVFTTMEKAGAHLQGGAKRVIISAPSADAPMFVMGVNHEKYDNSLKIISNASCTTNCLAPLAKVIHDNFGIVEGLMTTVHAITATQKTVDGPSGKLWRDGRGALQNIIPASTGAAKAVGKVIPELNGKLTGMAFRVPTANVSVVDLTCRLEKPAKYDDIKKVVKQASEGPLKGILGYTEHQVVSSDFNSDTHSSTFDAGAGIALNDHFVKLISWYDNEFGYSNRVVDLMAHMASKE

COc1cccc(N2CCN(C3=C(Cl)C(=O)N(c4ccc(Cl)c(Cl)c4)C3=O)CC2)c1: > 100 µM (not active)
Cc1cccc(N2C(=O)C(Cl)=C(N3CCN(Cc4ccccc4)CC3)C2=O)c1: > 50 µM (inconclusive)
O=C(c1cc(-c2cc(F)c(Cl)cc2Cl)n[nH]1)N(CCO)CCO: > 10 µM (inconclusive)

# input for lookup
Request: Record request: IC50 value, item "C[C@@H]1CN(C2=C(Cl)C(=O)N(c3ccc(Cl)c(Cl)c3)C2=O)[C@@H](C)CN1"
Response: > 100 µM (not active)

---

The following compounds are shown together with reported IC50 values.
- Measurement target: Induced myeloid leukemia cell differentiation protein Mcl-1 (Homo sapiens)
- Sequence (Q07820 whole entry): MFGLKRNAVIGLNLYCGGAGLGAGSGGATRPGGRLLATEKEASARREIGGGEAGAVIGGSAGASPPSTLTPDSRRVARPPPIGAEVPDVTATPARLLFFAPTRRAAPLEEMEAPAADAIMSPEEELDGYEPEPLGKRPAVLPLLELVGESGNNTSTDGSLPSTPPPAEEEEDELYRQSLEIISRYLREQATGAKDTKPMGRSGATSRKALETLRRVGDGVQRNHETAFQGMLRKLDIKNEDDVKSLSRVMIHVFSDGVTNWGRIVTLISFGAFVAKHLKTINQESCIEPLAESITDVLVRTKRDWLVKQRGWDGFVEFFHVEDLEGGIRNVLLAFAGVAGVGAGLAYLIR
- Format: functional
The source made the active and inactive calls.

The examples below pair each entry with its known result.
CCOC(=O)c1c(OCC)[nH]c2c1cc(O)c1ccccc12: 0.935 µM (active)
CNc1sc(C(=O)c2ccccc2F)c(N)c1-c1nc2ccccc2s1: 4.92 µM (active)
Cc1cc(C)c2c(c1)C1C=CCC1C(c1ccc(S(=O)(=O)N3CCOCC3)cc1)N2 (stereo unspecified): 2.74 µM (active)
CCOC(=O)c1sc2nc3c(SCCC(=O)O)cc(C(=O)c4cc(OC)ccc4O)cn3c(=O)c2c1C: 1.24 µM (active)
O=C(NCc1ccccn1)c1ccc2nc(-c3ccco3)c(-c3ccco3)nc2c1: 2.28 µM (active)

Now look at this one.
Request: Which value of IC50 has been reported for "O=C(N/N=C/c1ccc(O)cc1O)c1ccc(CN2C(=O)c3cccc4cccc2c34)cc1" in the records?
Response: 1.47 µM (active)

---

- Assay explanation: C. albicans growth with fluconazole, confirmation, fluorescence, retest (AID 2467)
- Assay type: functional, cell-based
The source made the active and inactive calls.
Measurement kind: EC50

Below are worked cases with known answers.
O=C(N/N=C/c1ccc(O)cc1O)c1ccc(CN2C(=O)c3cccc4cccc2c34)cc1: 0.384 µM (active)
O=C(c1ccccc1)C(CN1CCCC1)c1ccccc1 (centres undefined): 0.292 µM (active)
O=C(NCc1ccc(Cl)cc1)c1n[nH]c([N+](=O)[O-])c1Cl: 0.123 µM (active)

Kindly review the next molecule as well.
Request: Any idea what EC50 was measured for "CC(=O)N(Cc1ccc(F)cc1)C1=C(NCc2ccccc2)C(=O)c2ccccc2C1=O" ?
Response: 0.708 µM (active)

---

- Measurement target: Cytochrome P450 2C19 (Homo sapiens)
- Sequence (P33261 whole entry): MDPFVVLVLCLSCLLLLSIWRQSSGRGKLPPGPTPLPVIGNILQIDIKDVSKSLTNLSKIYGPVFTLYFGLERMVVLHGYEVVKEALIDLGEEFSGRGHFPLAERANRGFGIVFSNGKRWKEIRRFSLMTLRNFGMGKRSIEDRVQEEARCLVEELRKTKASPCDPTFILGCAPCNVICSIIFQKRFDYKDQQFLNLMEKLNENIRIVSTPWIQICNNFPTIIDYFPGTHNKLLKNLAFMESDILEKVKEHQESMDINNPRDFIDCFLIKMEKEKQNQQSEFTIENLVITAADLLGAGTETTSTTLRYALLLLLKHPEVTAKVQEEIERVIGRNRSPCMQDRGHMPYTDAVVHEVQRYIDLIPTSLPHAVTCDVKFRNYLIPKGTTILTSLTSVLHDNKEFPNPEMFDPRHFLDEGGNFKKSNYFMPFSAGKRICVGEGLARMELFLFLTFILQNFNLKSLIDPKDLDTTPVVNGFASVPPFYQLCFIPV
- Assay explanation: Cytochrome panel assay with activity outcomes. Panel member name: p450-cyp2c19 Compounds with AC50 equal or less than 10 uM are considered active
- Format: functional
- Test conditions: read-out: AC50
Structures can show the parent of a compound that is named as a salt.
Entries and their AC50 values follow.

Request: Could you tell me which AC50 is on file for "COCCn1c(=O)c(-c2cn(C)c3ccccc23)nc2cnc(Oc3ccc(OC)cc3)nc21" ?
Response: 15.8 µM (inconclusive)

Request: Sample "CCOC(=O)c1ccccc1NC(=O)/C(C)=C/C(=O)O" — what was its AC50?
Response: 39.8 µM (inconclusive)

Request: Entry under review: "Cc1cnc(CNc2cc(-c3ccccc3C(F)(F)F)ncn2)cn1" . Reported AC50?
Response: 39.8 µM (inconclusive)

Request: So what's the measured AC50 for this one? CN1CCN([C@@H](c2ccccc2)c2ccc(Cl)cc2)CC1 [CHLORCYCLIZINE HYDROCHLORIDE]
Response: 3.98 µM (inconclusive)

Request: What value of AC50 has been recorded for this entry: "CCc1noc(N)c1C(=O)Nc1ccc(F)c(Cl)c1"
Response: 15.8 µM (inconclusive)

Request: // query AC50 value for entry "COc1ccc2nc(NC(=O)CSc3nnc(C)s3)sc2c1"
Response: 3.55 µM (inconclusive)

Request: Which AC50 value belongs to "COc1ccc(S(N)(=O)=O)cc1C(=O)NCCCN1CCN(c2cccc(Cl)c2)CC1.CS(=O)(=O)O" ?
Response: 14.1 µM (inconclusive)

Request: Given the entry "CC(=O)Nc1ccc(NC(=O)c2ccccc2CC[N+](=O)[O-])cc1" , report its measured AC50.
Response: 0.355 µM (inconclusive)

Request: Return reported AC50; argument: "N#Cc1ccc(CN2CC3(CCN(C(=O)c4cc(C(F)(F)F)cc(C(F)(F)F)c4)CC3)C2)cc1"
Response: 39.8 µM (inconclusive)

---

This section presents molecules with their documented AC50 values.
- Measurement target: Cytochrome P450 2D6 (Homo sapiens);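 note: CYP2D6 member of a cytochrome P450 panel assay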
- Sequence (P10635 whole entry): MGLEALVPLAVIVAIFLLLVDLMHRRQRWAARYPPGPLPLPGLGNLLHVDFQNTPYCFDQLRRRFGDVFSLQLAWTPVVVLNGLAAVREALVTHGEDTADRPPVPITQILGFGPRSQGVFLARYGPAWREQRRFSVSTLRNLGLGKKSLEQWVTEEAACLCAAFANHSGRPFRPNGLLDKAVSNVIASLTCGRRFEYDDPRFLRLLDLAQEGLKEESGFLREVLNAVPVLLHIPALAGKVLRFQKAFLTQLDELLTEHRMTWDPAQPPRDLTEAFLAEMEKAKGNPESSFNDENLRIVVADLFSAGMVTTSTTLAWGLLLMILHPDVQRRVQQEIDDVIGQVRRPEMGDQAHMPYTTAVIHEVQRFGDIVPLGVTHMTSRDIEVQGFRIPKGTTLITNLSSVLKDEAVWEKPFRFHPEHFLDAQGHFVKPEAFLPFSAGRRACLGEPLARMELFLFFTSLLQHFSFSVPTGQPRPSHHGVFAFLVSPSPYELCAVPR

Here are 4 molecules together with their reported answers.
C[N+]1(C)[C@@H]2CC[C@H]1CC(OC(=O)c1c[nH]c3ccccc13)C2 (some centres undefined): 31.6 µM (inconclusive)
COc1ccc(NC(=O)NC2CC3CCCC(C2)N3Cc2ccccc2)cc1 (centres undefined): 11.2 µM (inconclusive)
CN1C(=O)C(=Cc2ccc(N3CCCCCC3)o2)C(=O)N(C)C1=S: 20 µM (inconclusive)
N=C(N)SCc1nc2ccccc2c(=O)n1-c1ccccc1Cl: 0.316 µM (inconclusive)

Request: State its AC50 on Cytochrome P450 2D6 (Homo sapiens): "O=c1c(-c2ccc(F)cc2)nc2cnc(N3CCOCC3)nc2n1Cc1ccc(F)cc1"
Response: 39.8 µM (inconclusive)

Request: Observed AC50 on Cytochrome P450 2D6 (Homo sapiens) for Cc1cc(C)c(NC(=O)C2CCCN2C)c(C)c1 (centres undefined) , please.
Response: 28.2 µM (inconclusive)

Request: Quick check: AC50 on Cytochrome P450 2D6 (Homo sapiens), item "O=C(CSc1nnc(SCc2cccc3ccccc23)s1)c1ccc2c(c1)OCO2" ?
Response: 7.94 µM (inconclusive)

Request: What AC50 appears in the records for this molecule with Cytochrome P450 2D6 (Homo sapiens)? CCOC(=O)N1CCN(C(=O)C(CC)n2nc(C)c3sc4ccccc4c3c2=O)CC1 (centres undefined)
Response: 39.8 µM (inconclusive)

Request: Under Cytochrome P450 2D6 (Homo sapiens): AC50 value of "COc1ccc(C(=O)N2CCC3(CCCN(c4ncccn4)C3)CC2)cc1" ?
Response: 31.6 µM (inconclusive)

---

- Assay explanation: growth suppression of PTEN-null colon cells, dose response, cell-based, HCT116 PTEN knockout (AID 1047);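 note: HCT116 colon tumor cells with PTEN knocked out; cells exposed to compound for 60 hours before readout; potency for loss of cell viability measured by luminescence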
- Assay type: functional
Active and inactive are the calls of the source.
Measurement kind: EC50

Answered cases to consult:
O=[N+]([O-])c1cc(C(F)(F)F)ccc1NCCN=C(S)Nc1ccc(Cl)cc1: 11.7 µM (active)
N#CC1=C(N)Oc2cc(O)ccc2C1C1CCCCC1 (centres undefined): 12.1 µM (active)
Cc1ccc(C)c(OCC(O)CN2CCC(CN3C(=O)c4cccc5cccc(c45)C3=O)CC2)c1 (centres undefined): 4.42 µM (active)

Now for a further molecule.
Request: Data request, read-out EC50, for "O=C(/C(=C/c1cccc(Cl)c1)c1nc2ccccc2[nH]1)c1ccccc1"
Response: 3.93 µM (active)

---

- Measurement target: UniProt Q9GZR1
- Sequence (Q9GZR1 whole entry): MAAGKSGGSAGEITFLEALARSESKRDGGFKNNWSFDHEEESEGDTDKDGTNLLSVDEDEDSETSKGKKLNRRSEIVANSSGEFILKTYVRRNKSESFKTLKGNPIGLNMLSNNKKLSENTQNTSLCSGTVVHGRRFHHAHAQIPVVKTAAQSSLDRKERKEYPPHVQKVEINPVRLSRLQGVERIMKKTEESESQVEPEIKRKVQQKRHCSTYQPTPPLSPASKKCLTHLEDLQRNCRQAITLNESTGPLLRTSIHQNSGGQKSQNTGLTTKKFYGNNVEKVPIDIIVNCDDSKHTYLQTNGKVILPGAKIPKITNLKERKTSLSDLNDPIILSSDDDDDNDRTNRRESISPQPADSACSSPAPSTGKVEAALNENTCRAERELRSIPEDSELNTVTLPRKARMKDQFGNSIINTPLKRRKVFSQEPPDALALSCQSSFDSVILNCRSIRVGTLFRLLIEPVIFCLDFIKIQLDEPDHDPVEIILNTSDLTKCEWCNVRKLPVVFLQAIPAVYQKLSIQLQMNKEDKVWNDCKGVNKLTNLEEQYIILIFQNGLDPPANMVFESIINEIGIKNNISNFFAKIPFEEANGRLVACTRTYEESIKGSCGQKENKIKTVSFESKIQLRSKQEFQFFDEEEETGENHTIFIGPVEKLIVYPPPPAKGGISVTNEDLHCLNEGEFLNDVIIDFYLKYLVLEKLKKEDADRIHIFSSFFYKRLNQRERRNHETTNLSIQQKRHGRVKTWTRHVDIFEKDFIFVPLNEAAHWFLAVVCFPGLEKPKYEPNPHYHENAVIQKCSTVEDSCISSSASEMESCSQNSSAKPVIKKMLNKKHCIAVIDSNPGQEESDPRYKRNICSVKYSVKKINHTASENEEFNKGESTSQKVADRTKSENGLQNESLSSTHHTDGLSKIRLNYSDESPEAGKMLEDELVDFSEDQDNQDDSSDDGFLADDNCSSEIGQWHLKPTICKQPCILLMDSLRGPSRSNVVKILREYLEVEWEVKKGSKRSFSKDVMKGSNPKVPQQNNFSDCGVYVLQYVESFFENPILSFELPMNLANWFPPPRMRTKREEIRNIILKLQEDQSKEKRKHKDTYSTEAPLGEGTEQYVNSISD
- Assay type: functional
The source made the active and inactive calls.
Choose one outcome from this list and give only that: active, inactive

Record excerpt, results attached:
CCN(CC)c1ccc(C(=O)OCC(=O)Nc2sccc2C#N)cc1: active
COc1ccc(/C=C/C(=O)c2ccccc2O)cc1: active
Cc1ccc(C)c(NC(=O)c2cc(-c3cc(C)ccc3O)[nH]n2)c1: inactive
Cc1cccc(C(=O)Nc2sc(C)c(-c3ccccc3)c2C#N)c1: inactive

Request: Give the logged outcome of this assay for the following compound: "Fc1cccc2sc(N3CCCCC3)nc12"
Response: active

Request: Which outcome was assigned to "NS(=O)(=O)c1ccc(NC2=CC(=O)C(=O)c3ccccc32)cc1" in this test?
Response: active

Request: Please let me know the test result on file for "CC(C)N(C(=O)Nc1ccc2nsnc2c1)C(C)C" .
Response: active

Request: Name the outcome recorded for "CC(C)n1cnc2c(NCc3ccccc3)cc(OCC3CCN(C)CC3)cc21" in the assay.
Response: active
